Attribution: ChEMBL document CHEMBL5579888

# Test system: Quadruplex DNA
# method-notes: Binding affinity to human G4-quadruplex KRAS DNA 5'- AGGGCGGTGTGGGAAGAGGGAAGAGGGGGAGG-3' at 10 uM by CD spectra analysis
# Type: nucleic-acid assay
Calls of active or inactive are those of the source. The rule behind the calls is not given here.
test-readout: Activity

Would you please look over these solved cases?
{"mol-smiles": "COc1ccc2c(c[n+](C)c3c4cc5c(cc4ccc23)OCO5)c1OC", "result": "inactive"}
{"mol-smiles": "COc1cc2c[n+](C)c3c4cc5c(cc4ccc3c2cc1OC)OCO5", "result": "inactive"}
{"mol-smiles": "COc1ccc2cc3[n+](cc2c1OC)CCc1cc2c(cc1-3)OCO2", "result": "inactive"}
{"mol-smiles": "c1c2c(cc3c1OCO3)-c1cc3ccc4c(c3c[n+]1CC2)OCO4", "result": "inactive"}

Next up:
The measured Activity associated with C[n+]1cc2c3c(ccc2c2ccc4cc5c(cc4c21)OCO5)OCO3 reads inactive

====

Quick reference: pEC50 of the listed items.
# tested-system: dsDNA
# method-notes: Binding affinity to double stranded DNA AT15 (unknown origin) incubated for 0.5 hrs in presence of different concentration DNA by fluorescence spectra analysis
# Type: nucleic-acid assay
Note: pEC50 values are expressed as the negative base-10 logarithm of concentration in M.

Some solved cases for reference:
{"mol-smiles": "COc1ccc2c(c[n+](C)c3c4cc5c(cc4ccc23)OCO5)c1OC", "pEC50": 5.95}
{"mol-smiles": "c1c2c(cc3c1OCO3)-c1cc3ccc4c(c3c[n+]1CC2)OCO4", "pEC50": 5.77}

Here is the next item to consider.
// pEC50 lookup, compound = C[n+]1cc2c3c(ccc2c2ccc4cc5c(cc4c21)OCO5)OCO3 , result: 6.21

====

# tested-system: Quadruplex DNA
# method-notes: Binding affinity to human G4-quadruplex Bcl2 DNA 5'- CGGGCGCGGGAGGAAGGGGGCGGGAGC-3' assessed as change in fluorescence intensity at 1 uM incubated for 0.5 hrs in presence of different concentrations of DNA by fluorescence spectra analysis
# Assay type: nucleic-acid assay
test-readout: pKd
Formally, pKd is defined as -log10 of the concentration c, with c in mol/L.

{"mol-smiles": "COc1ccc2cc3[n+](cc2c1OC)CCc1cc2c(cc1-3)OCO2", "tested-system": "Quadruplex DNA", "numeric-value": 5.61}
{"mol-smiles": "COc1ccc2c(c[n+](C)c3c4cc5c(cc4ccc23)OCO5)c1OC", "tested-system": "Quadruplex DNA", "numeric-value": 5.24}
{"mol-smiles": "c1c2c(cc3c1OCO3)-c1cc3ccc4c(c3c[n+]1CC2)OCO4", "tested-system": "Quadruplex DNA", "numeric-value": 5.94}

Now consider the entry below.
C[n+]1cc2c3c(ccc2c2ccc4cc5c(cc4c21)OCO5)OCO3 has a reported pKd of 4.96

====

# Kd per entry
# tested-system: Quadruplex DNA
# method-notes: Displacement of ThT from human G4-quadruplex Bcl2 DNA 5'- CGGGCGCGGGAGGAAGGGGGCGGGAGC-3' incubated for 0.5 hrs by SpectraMax M2 microplate reader analysis
# Format: nucleic-acid assay
Give the value in nM but do not write nM after it.

Use the examples below as a reference point.
{"molecule": "c1c2c(cc3c1OCO3)-c1cc3ccc4c(c3c[n+]1CC2)OCO4 [COPTISINE]", "Kd [nM]": 350}
{"molecule": "COc1cc2c[n+](C)c3c4cc5c(cc4ccc3c2cc1OC)OCO5 [NITIDINE]", "Kd [nM]": 1520}
{"molecule": "COc1ccc2c(c[n+](C)c3c4cc5c(cc4ccc23)OCO5)c1OC [CHELERYTHRINE]", "Kd [nM]": 860}
{"molecule": "COc1ccc2cc3[n+](cc2c1OC)CCc1cc2c(cc1-3)OCO2 [BERBERINE]", "Kd [nM]": 1840}

// Kd value for C[n+]1cc2c3c(ccc2c2ccc4cc5c(cc4c21)OCO5)OCO3 [SANGUINARIUM] : 440
